Biological target: T1, human ACTH 1-39 (human)
T1 peptide: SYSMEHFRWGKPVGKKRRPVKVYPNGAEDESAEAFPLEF
Assay: cell-based or functional assay
RESULT TYPE: MC3R IC50 (nM)
Answers are plain numbers, in nM.

Some solved cases for reference:
Ab3 (antibody, human IgG1, kappa, N297A, V domains shown, rabbit/human chimeric antibody, made in HEK-293) VH: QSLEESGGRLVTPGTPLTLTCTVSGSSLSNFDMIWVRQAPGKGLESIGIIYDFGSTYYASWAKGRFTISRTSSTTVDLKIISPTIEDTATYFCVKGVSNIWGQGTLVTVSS VL: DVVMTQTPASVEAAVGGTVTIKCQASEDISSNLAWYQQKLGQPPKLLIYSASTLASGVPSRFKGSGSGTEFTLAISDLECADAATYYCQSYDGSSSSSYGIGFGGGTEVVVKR = 58.7
Ab6 (antibody, human IgG1, kappa, N297A, V domains shown, rabbit/human chimeric antibody, made in HEK-293) VH: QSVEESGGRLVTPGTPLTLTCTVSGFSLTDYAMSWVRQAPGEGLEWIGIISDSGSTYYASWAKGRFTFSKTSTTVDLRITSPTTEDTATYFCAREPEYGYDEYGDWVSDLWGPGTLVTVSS VL: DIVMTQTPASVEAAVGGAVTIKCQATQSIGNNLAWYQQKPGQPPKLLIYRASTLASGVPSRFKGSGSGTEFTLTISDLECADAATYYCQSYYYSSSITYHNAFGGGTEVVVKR = 62.8

MC3R IC50 reported for this binder Ab5 (antibody, human IgG1, kappa, N297A, V domains shown, rabbit/human chimeric antibody, made in HEK-293) VH: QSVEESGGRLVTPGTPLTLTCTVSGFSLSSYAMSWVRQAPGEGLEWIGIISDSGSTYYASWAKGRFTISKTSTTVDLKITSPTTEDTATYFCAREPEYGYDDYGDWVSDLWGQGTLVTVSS VL: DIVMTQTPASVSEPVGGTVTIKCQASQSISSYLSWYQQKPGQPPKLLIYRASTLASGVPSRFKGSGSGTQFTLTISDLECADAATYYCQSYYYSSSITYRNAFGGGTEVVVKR : 58.1
